Can you tell me viability, T/C for the items I'm about to list?
system: 521955-158-R2-J5-PDC complex spheroid viability; experiment: Anticancer human tumor 521955-158-R2-J5-PDC patient-derived pancreatic carcinoma cell line growth inhibition; conditions: second compound 3.16 µM; first compound 0.0316 µM; active compounds read low
State the answer as a number, implicitly in %.

input: Read the entry O=C(c1cc(Cc2n[nH]c(=O)c3ccccc23)ccc1F)N1CCN(C(=O)C2CC2)CC1 + NC1CC1c1ccc(-c2cccc(O)c2)cc1 and write its reported viability, T/C.
output: 81.8

input: Give the reported value of viability, T/C for this record: Cn1ncnc1C1c2n[nH]c(=O)c3cc(F)cc(c23)NC1c1ccc(F)cc1 (stereo not drawn) + NC1CC1c1ccc(-c2cccc(O)c2)cc1
output: 89

input: Return viability, T/C (reported value) for this molecule: O=C(C=Cn1cnc(-c2cc(C(F)(F)F)cc(C(F)(F)F)c2)n1)NNc1cnccn1 + NC1CCC(NC2CC2c2ccccc2)CC1
output: 36.1

###

For each of the compounds below, state its viability, T/C.
test system: 521955-158-R2-J5-PDC complex spheroid viability; assay: Anticancer human tumor 521955-158-R2-J5-PDC cell line growth inhibition; conditions: second compound 1 µM; first compound 0.03 µM; active compounds read low;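 further: spheroids exposed to agents for seven days; percent of DMSO vehicle control luminescence viability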
I only need the number, in %, no unit after it.

input: Answer with reported viability, T/C of Nc1ncn(C2CC(O)C(CO)S2)c(=O)n1 (stereo not given) + NC1CC1c1ccc(-c2cccc(O)c2)cc1
output: 88.8

input: Annotate the compound CCN(c1cc(-c2ccc(CN3CCOCC3)cc2)cc(C(=O)NCc2c(C)cc(C)[nH]c2=O)c1C)C1CCOCC1 + NC1CCC(NC2CC2c2ccccc2)CC1 with its measured viability, T/C.
output: 99.8

input: Report measured viability, T/C; entry is COc1cc(C2c3cc4c(cc3C(OC3OC5COC(C)OC5C(O)C3O)C3COC(=O)C23)OCO4)cc(OC)c1O (stereo not given) + NC1CCC(NC2CC2c2ccccc2)CC1
output: 77.7

input: For the compound COc1cc(C2c3cc4c(cc3C(OC3OC5COC(C)OC5C(O)C3O)C3COC(=O)C23)OCO4)cc(OC)c1O (stereo not given) + NC1CC1c1ccc(-c2cccc(O)c2)cc1 , give its measured viability, T/C value.
output: 87.2

input: // fetch viability, T/C given entry O=C(C=Cc1cccc(S(=O)(=O)Nc2ccccc2)c1)NO + NC1CCC(NC2CC2c2ccccc2)CC1
output: 97.3

###

system: 521955-158-R2-J5-PDC complex spheroid viability; test: Anticancer human tumor 521955-158-R2-J5-PDC cell line growth inhibition; conditions: second compound 10 µM; first compound 0.00316 µM; active = viability on the fitted dose curve at most 10% of control; inactive = the rest;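 further: spheroids exposed to agents for seven days; percent of DMSO vehicle control luminescence viability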
Hi! Could you answer with just one of these? active, inactive

input: Record request — test call for Nc1ncn(C2CC(O)C(CO)O2)c(=O)n1 (centres undefined) + NC1CC1c1ccc(-c2cccc(O)c2)cc1
output: inactive

input: Please share the test call associated with CC(C)CC(NC(=O)C(Cc1ccccc1)NC(=O)c1cnccn1)B(O)O (centres undefined) + NC1CCC(NC2CC2c2ccccc2)CC1 .
output: active

input: Look up the recorded call for CC[C@@]1(O)C(=O)OCc2c1cc1n(c2=O)Cc2cc3c(CN(C)C)c(O)ccc3nc2-1 + NC1CC1c1ccc(-c2cccc(O)c2)cc1 in this test.
output: inactive

input: State the result this test recorded for O=C(C=Cn1cnc(-c2cc(C(F)(F)F)cc(C(F)(F)F)c2)n1)NNc1cnccn1 + NC1CCC(NC2CC2c2ccccc2)CC1 .
output: inactive

input: Could you kindly confirm the outcome this assay logged for CC(C)CC(NC(=O)C(Cc1ccccc1)NC(=O)c1cnccn1)B(O)O (centres undefined) + NC1CC1c1ccc(-c2cccc(O)c2)cc1 ?
output: active

input: Outcome logged for Cn1ncnc1C1c2n[nH]c(=O)c3cc(F)cc(c23)NC1c1ccc(F)cc1 (centres undefined) + NC1CC1c1ccc(-c2cccc(O)c2)cc1 in this assay:
output: inactive

input: # fetch the recorded call for COc1cc(Nc2ncc3c(n2)-c2ccc(Cl)cc2C(c2c(F)cccc2OC)=NC3)ccc1C(=O)O + NC1CC1c1ccc(-c2cccc(O)c2)cc1 here
output: inactive

input: Test call, this compound: CC(C)CC(NC(=O)CNC(=O)c1cc(Cl)ccc1Cl)B1OC(=O)CC(CC(=O)O)(C(=O)O)O1 (centres undefined) + NC1CC1c1ccc(-c2cccc(O)c2)cc1
output: inactive

input: Please state the recorded outcome for this compound: COc1cc(Nc2ncc3c(n2)-c2ccc(Cl)cc2C(c2c(F)cccc2OC)=NC3)ccc1C(=O)O + NC1CCC(NC2CC2c2ccccc2)CC1
output: inactive

###

Test system: 521955-158-R2-J5-PDC complex spheroid viability
Experiment: Anticancer human tumor 521955-158-R2-J5-PDC cell line growth inhibition;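 further: spheroids exposed to agents for seven days; percent of DMSO vehicle control luminescence viability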
Details: second compound 10 µM; first compound 0.316 µM; active compounds read low
Text: Multicellular complex tumor spheroid response to LSD1 Inhibitor Iadademstat in combination with a variety of drugs and investigational agents in selected tumor cell lines The current study was undertaken to assess response to LSD1 inhibitors in combination with standard-of-care drugs and investigational agents in solid tumor complex spheroid models as well as in the K-562 leukemia. […] Compounds. […] If the clinical Cmax for an agent had not been determined, the highest concentration tested was 10 microM. […]
Flag rule - viability, T/C less than 80% flags true (1); the remaining entries get false (0).

input: Please state whether viability, T/C is below 80% for CC1(C)CCC(CN2CCN(c3ccc(C(=O)NS(=O)(=O)c4ccc(NCC5CCOCC5)c([N+](=O)[O-])c4)c(Oc4cnc5[nH]ccc5c4)c3)CC2)=C(c2ccc(Cl)cc2)C1 + NC1CC1c1ccc(-c2cccc(O)c2)cc1
output: false (0)

input: # check: viability, T/C < 80% for Nc1ncn(C2CC(O)C(CO)O2)c(=O)n1 (stereo not drawn) + NC1CC1c1ccc(-c2cccc(O)c2)cc1
output: true (1)

input: Given COc1ccc([C@@H](O)c2cc(-c3ncnc4cc(N5CCOCC5)ccc34)c(F)cc2Cl)nn1 + NC1CC1c1ccc(-c2cccc(O)c2)cc1 , is recorded viability, T/C strictly lower than 80%?
output: true (1)

input: I wonder whether O=C(C=Cn1cnc(-c2cc(C(F)(F)F)cc(C(F)(F)F)c2)n1)NNc1cnccn1 + NC1CC1c1ccc(-c2cccc(O)c2)cc1 has viability, T/C below 80%. Can you tell?
output: true (1)

input: Please let me know if CC1(C)CCC(CN2CCN(c3ccc(C(=O)NS(=O)(=O)c4ccc(NCC5CCOCC5)c([N+](=O)[O-])c4)c(Oc4cnc5[nH]ccc5c4)c3)CC2)=C(c2ccc(Cl)cc2)C1 + NC1CCC(NC2CC2c2ccccc2)CC1 shows viability, T/C below 80%.
output: false (0)

input: Quick check: does CC(C)c1c(-c2ccccc2)nc2c(C#N)c[nH]n2c1=O + NC1CC1c1ccc(-c2cccc(O)c2)cc1 have viability, T/C under 80%?
output: true (1)

input: Lab note: viability, T/C threshold 80%. Does this compound come in strictly under it? O=C(C=Cn1cnc(-c2cc(C(F)(F)F)cc(C(F)(F)F)c2)n1)NNc1cnccn1 + NC1CCC(NC2CC2c2ccccc2)CC1
output: true (1)

input: Strictly below 80% in viability, T/C? COc1cc(Nc2ncc3c(n2)-c2ccc(Cl)cc2C(c2c(F)cccc2OC)=NC3)ccc1C(=O)O + NC1CCC(NC2CC2c2ccccc2)CC1
output: true (1)

input: In plain terms, does Nc1ncn(C2CC(O)C(CO)O2)c(=O)n1 (stereo not drawn) + NC1CCC(NC2CC2c2ccccc2)CC1 come in under 80% for viability, T/C?
output: true (1)

input: Say whether its viability, T/C is strictly beneath 80%. Entry: O=C(c1cc(Cc2n[nH]c(=O)c3ccccc23)ccc1F)N1CCN(C(=O)C2CC2)CC1 + NC1CC1c1ccc(-c2cccc(O)c2)cc1
output: false (0)

input: Is viability, T/C strictly under 80% for the entry CC1COCCN1c1cc(C2(S(C)(=N)=O)CC2)nc(-c2ccnc3[nH]ccc23)n1 (stereo not drawn) + NC1CC1c1ccc(-c2cccc(O)c2)cc1 ?
output: true (1)

input: Lab note: viability, T/C threshold 80%. Does this compound come in strictly under it? COc1cc(Nc2ncc3c(n2)-c2ccc(Cl)cc2C(c2c(F)cccc2OC)=NC3)ccc1C(=O)O + NC1CC1c1ccc(-c2cccc(O)c2)cc1
output: true (1)

###

I'd appreciate it if you could supply viability, T/C values for the items below.
test system: 521955-158-R2-J5-PDC complex spheroid viability; assay: Anticancer human tumor 521955-158-R2-J5-PDC cell line growth inhibition; details: second compound 3.16 µM; first compound 1 µM; active compounds read low;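 further: spheroids exposed to agents for seven days; percent of DMSO vehicle control luminescence viability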

input: Specify measured viability, T/C for COc1cc(Nc2ncc3c(n2)-c2ccc(Cl)cc2C(c2c(F)cccc2OC)=NC3)ccc1C(=O)O + NC1CC1c1ccc(-c2cccc(O)c2)cc1 .
output: 66%

input: Determine from records and report viability, T/C for COc1ccc([C@@H](O)c2cc(-c3ncnc4cc(N5CCOCC5)ccc34)c(F)cc2Cl)nn1 + NC1CCC(NC2CC2c2ccccc2)CC1
output: 45.8%

input: Return the recorded viability, T/C value; entry: COc1ccc([C@@H](O)c2cc(-c3ncnc4cc(N5CCOCC5)ccc34)c(F)cc2Cl)nn1 + NC1CC1c1ccc(-c2cccc(O)c2)cc1
output: 53.1%

Data origin, for the record: PubChem BioAssay AID1918937
